Values compiled from ChEMBL document CHEMBL1156483.

# assay notes: Displacement of fluorescein-SLF from FKBP12 F36V mutant by fluorescence polarization assay
Consider the following compounds; for each one, report its Kd.
Numbers only, in nM.

Here are 3 compounds together with their reported answers.
given smiles: CC[C@H](C(=O)N1CCCC[C@H]1C(=O)O[C@H](CCc1ccc(OC)c(OC)c1)c1cccc(OCC(=O)O)c1)c1cc(OC)c(OC)c(OC)c1
unit tag: nM
recorded value: 0.4
//
given smiles: CC[C@H](C(=O)N1CCCC[C@H]1C(=O)O[C@H](CCc1ccc(OC)c(OC)c1)c1cccc(OCC(=O)NCC(C)(C)N)c1)c1cc(OC)c(OC)c(OC)c1
unit tag: nM
recorded value: 0.9
//
given smiles: CC[C@H](C(=O)N1CCCC[C@H]1C(=O)O[C@H](CCc1ccc(OC)c(OC)c1)c1cccc(OCC(=O)OCCn2ccnn2)c1)c1cc(OC)c(OC)c(OC)c1
unit tag: nM
recorded value: 0.7

Query :: Could you tell me which Kd is on file for CC[C@H](C(=O)N1CCCC[C@H]1C(=O)O[C@H](CCc1ccc(OC)c(OC)c1)c1cccc(OCCN2CCOCC2)c1)c1cc(OC)c(OC)c(OC)c1 ?
Result :: 0.4
